Measured log10(EC50), listed per entry for reference.
Tested on: MB453 cells
ASSAY INFO: alamarBlue MB453 cell assay (antiproliferative/cytotoxicity)
Type: cell-based
RECORDED CONDITIONS: Homo sapiens; MDA MB 453 breast cancer cell line
MEASURED PROPERTY: log10(EC50) (log10 of the value in nM)

>>> value_measured("CCc1ncnc(N2CCC(O)CC2)c1C#Cc1cnc(C)c(NS(=O)(=O)c2ccc(F)cc2)c1")
2.24
>>> value_measured("Cc1ncnc(N2CCOCC2)c1C#Cc1cncc(NS(=O)(=O)c2ccccc2)c1")
2.59
>>> value_measured("Cc1ncc(C#Cc2c(C)ncnc2N2CCOCC2)cc1NS(=O)(=O)c1ccc(F)cc1F")
2.01
>>> value_measured("Cc1ncc(C#Cc2c(C)ncnc2N2CCOCC2)cc1NS(=O)(=O)c1ccoc1")
2.38
>>> value_measured("Cc1ncnc(N2CCOCC2)c1C#Cc1cncc(NS(=O)(=O)c2cccs2)c1")
2.19
>>> value_measured("COc1ncc(C#Cc2c(C)ncnc2N2CCOCC2)cc1NS(=O)(=O)c1cccs1")
1.15
>>> value_measured("Cc1ncnc(N2CCOCC2)c1C#Cc1cncc(NS(=O)(=O)c2ccc(F)cc2F)c1")
2.45
>>> value_measured("COc1ncc(C#Cc2c(C)ncnc2N2CCOCC2)cc1NS(=O)(=O)c1ccnn1C")
1.18
>>> value_measured("CCc1ncnc(N(C)C)c1C#Cc1cnc(C)c(NS(=O)(=O)c2ccc(F)cc2)c1")
3.09
>>> value_measured("Cc1ncc(C#Cc2c(C)ncnc2N(C)C(C)C)cc1NS(=O)(=O)c1ccc(F)cc1F")
2.95
>>> value_measured("COc1ncc(C#Cc2c(C)ncnc2N2CCOCC2)cc1NS(=O)(=O)c1ccccc1C(F)(F)F")
0.85
>>> value_measured("CCc1ncnc(N(C)C)c1C#Cc1cnc(C)c(NS(C)(=O)=O)c1")
2.82

###

Test system: U87 cells
ASSAY INFO: U87 cell assay (antiproliferative/cytotoxicity)
Type: cell-based
RECORDED CONDITIONS: U-87MG human glioblastoma cells
MEASURED PROPERTY: log10 of EC50 (log10 of the value in µM)

>>> value_measured("Cc1ncc(C#Cc2c(C)ncnc2N2CCOCC2)cc1NS(=O)(=O)c1cnoc1C")
1.40
>>> value_measured("Cc1ncc(C#Cc2c(C)ncnc2N2CCOCC2)cc1NS(=O)(=O)C(C)C")
-0.08
>>> value_measured("Cc1ncc(C#Cc2c(C)ncnc2N2CCOCC2)cc1NS(=O)(=O)c1cccnc1")
-0.24
>>> value_measured("COc1ncc(C#Cc2c(C)ncnc2N2CCOCC2)cc1NS(=O)(=O)c1ccc(Cl)s1")
-1.19
>>> value_measured("Cc1ncc(C#Cc2c(C)ncnc2N2CCOCC2)cc1NS(=O)(=O)c1ccc(F)cc1")
-0.41
>>> value_measured("Cc1ncnc(N2CCOCC2)c1C#Cc1cncc(NS(=O)(=O)c2ccccc2)c1")
-0.15
>>> value_measured("CCc1ncnc(N2CCN(S(C)(=O)=O)CC2)c1C#Cc1cnc(C)c(NS(=O)(=O)c2ccc(F)cc2)c1")
-0.33
>>> value_measured("Cc1ncc(C#Cc2c(C)ncnc2N2CCOCC2)cc1NS(=O)(=O)c1ccco1")
-0.29
>>> value_measured("COc1ncc(C#Cc2c(C)ncnc2N2CCOCC2)cc1NS(=O)(=O)c1ccccc1")
-1.26
>>> value_measured("Cc1ncc(C#Cc2c(C)ncnc2N2CCOCC2)cc1NS(=O)(=O)c1ccc(Cl)s1")
-0.35
>>> value_measured("CC(=O)N1CCN(c2ncnc(C)c2C#Cc2cnc(C)c(NS(=O)(=O)c3ccc(F)cc3F)c2)CC1")
0.28
>>> value_measured("COc1ncc(C#Cc2c(C)ncnc2N2CCOCC2)cc1NS(=O)(=O)c1ccnn1C")
-1.27
